Where do the numbers come from? From the NIST ThermoML archive (doi:10.1016/j.jct.2019.02.015).

settings: 303.15 K; 101.33 kPa; Liquid; Vibrating tube method
quantityKind: mass density (kg/m3)

# compound, quantityKind, valueMeasured
data = [
    ("CCCC(=O)[O-].CCCCCCCC[NH+](CCCCCCCC)CCCCCCCC [trioctylammonium butanoate]", "mass density", 838.68),
    ("CCCCCC(=O)[O-].CCCCCCCC[NH+](CCCCCCCC)CCCCCCCC [trioctylammonium hexanoate]", "mass density", 841.06),
    ("CCCCCC(=O)[O-].CCCCCC[NH+](CCCCCC)CCCCCC [trihexylammonium hexanoate]", "mass density", 842.59),
    ("CCCCCCCC(=O)[O-].CCCCCCCC[NH+](CCCCCCCC)CCCCCCCC [trioctylammonium octanoate]", "mass density", 842.77),
    ("CCCC(=O)[O-].CCCCCC[NH+](CCCCCC)CCCCCC [trihexylammonium butanoate]", "mass density", 840.63),
    ("CCCCCCCC(=O)[O-].CCCCCC[NH+](CCCCCC)CCCCCC [trihexylammonium octanoate]", "mass density", 844.06),
]

* * *

conditions: 328.15 K; 101.33 kPa; Liquid; Vibrating tube method
quantityKind: mass density (kg/m3)

# compound, mass density, kg/m3
rows = [
    ("CCCCCC(=O)[O-].CCCCCCCC[NH+](CCCCCCCC)CCCCCCCC [trioctylammonium hexanoate]", 823.62),
    ("CCCC(=O)[O-].CCCCCCCC[NH+](CCCCCCCC)CCCCCCCC [trioctylammonium butanoate]", 821.05),
    ("CCCCCCCC(=O)[O-].CCCCCC[NH+](CCCCCC)CCCCCC [trihexylammonium octanoate]", 826.11),
    ("CCCCCCCC(=O)[O-].CCCCCCCC[NH+](CCCCCCCC)CCCCCCCC [trioctylammonium octanoate]", 825.44),
    ("CCCCCC(=O)[O-].CCCCCC[NH+](CCCCCC)CCCCCC [trihexylammonium hexanoate]", 824.38),
    ("CCCC(=O)[O-].CCCCCC[NH+](CCCCCC)CCCCCC [trihexylammonium butanoate]", 822.04),
]

* * *

test: refractive index (Na D-line) (dimensionless); settings: 303.15 K; 101.33 kPa; Liquid; Standard Abbe refractometry
quantityKind: refractive index

# compound, refractive index
measured = [
    ("CCCCCC(=O)[O-].CCCCCC[NH+](CCCCCC)CCCCCC [trihexylammonium hexanoate]", 1.4395),
    ("CCCC(=O)[O-].CCCCCCCC[NH+](CCCCCCCC)CCCCCCCC [trioctylammonium butanoate]", 1.4437),
    ("CCCC(=O)[O-].CCCCCC[NH+](CCCCCC)CCCCCC [trihexylammonium butanoate]", 1.438),
    ("CCCCCCCC(=O)[O-].CCCCCCCC[NH+](CCCCCCCC)CCCCCCCC [trioctylammonium octanoate]", 1.4464),
    ("CCCCCCCC(=O)[O-].CCCCCC[NH+](CCCCCC)CCCCCC [trihexylammonium octanoate]", 1.4419),
    ("CCCCCC(=O)[O-].CCCCCCCC[NH+](CCCCCCCC)CCCCCCCC [trioctylammonium hexanoate]", 1.4451),
]

* * *

details: 293.15 K; 101.33 kPa; Liquid; Vibrating tube method
quantityKind: mass density (kg/m3)

# compound, valueMeasured
records = [
    ("CCCCCC(=O)[O-].CCCCCC[NH+](CCCCCC)CCCCCC [trihexylammonium hexanoate]", 849.82),
    ("CCCC(=O)[O-].CCCCCCCC[NH+](CCCCCCCC)CCCCCCCC [trioctylammonium butanoate]", 845.71),
    ("CCCCCC(=O)[O-].CCCCCCCC[NH+](CCCCCCCC)CCCCCCCC [trioctylammonium hexanoate]", 848.02),
    ("CCCC(=O)[O-].CCCCCC[NH+](CCCCCC)CCCCCC [trihexylammonium butanoate]", 848.02),
    ("CCCCCCCC(=O)[O-].CCCCCC[NH+](CCCCCC)CCCCCC [trihexylammonium octanoate]", 851.2),
    ("CCCCCCCC(=O)[O-].CCCCCCCC[NH+](CCCCCCCC)CCCCCCCC [trioctylammonium octanoate]", 849.68),
]
